- Test Name: Cmax in mouse at 5 mg/kg, iv
- Format: ADME, organism-based
- Parameters: dose 5 mg/kg, route intravenous
- Experimental Context: in vivo
Recorded Endpoint: Cmax (ng/mL)
Form entry: value (ng/mL) — number only.

Problem: Query: Cmax; subject: "NC(=O)c1[nH]cc(-c2ccncc2)c1C(F)(F)F"
Result: 9940

---

- Test Name: Half life in mouse at 5 mg/kg, iv
- Type: ADME, organism-based
- Experimental Context: in vivo
Recorded Endpoint: half-life (min)
Form entry: value (min) — number only.

Problem: Query: half-life; subject: "NC(=O)c1[nH]cc(-c2ccncc2)c1C(F)(F)F"
Result: 50.4

---

- Test Name: Volume of distribution at steady state in mouse at 5 mg/kg, iv
- Assay type: ADME, organism-based
- Experimental Context: in vivo, read-out: Vdss
Recorded Endpoint: Vd

Problem: Query: Vd; subject: "NC(=O)c1[nH]cc(-c2ccncc2)c1C(F)(F)F"
Result: 0.49 L/kg

---

- Test Name: Tmax in mouse at 25 mg/kg, po
- Assay type: ADME, organism-based
- Experimental Context: in vivo
Recorded Endpoint: Tmax (min)
Form entry: value (min) — number only.

Problem: Query: Tmax; subject: "NC(=O)c1[nH]cc(-c2ccncc2)c1C(F)(F)F"
Result: 15
